Experiment: NCI Yeast Anticancer Drug Screen. Data for the bub3 strain (AID 167)
Conditions: S. cerevisiae bub3 mutant strain, at 5.0 µM (retest, dose inferred, filed as 0.5), hits give high values
Compounds without any hit were thinned out: in the full panel of roughly 79,000, 15% have a hit. Activity calls are given as the source filed them. No stated cut-off is given here; in the data, active means growth inhibition above about 70%; inactive means the rest.

compound: CCC/C(Cl)=N\OC(=O)Nc1cccc(C(F)(F)F)c1
growth inhibition: 9% (inactive)
--
compound: CC(O)C(O)C(O)C(/C=N\Nc1ccccc1)=N/Nc1ccccc1 (configuration not stated)
growth inhibition: -7% (inactive)
--
compound: Cc1c(C2=C(Br)C(=O)N(C)C2=O)c(=O)n(C)c(=O)n1C
growth inhibition: 6% (inactive)
--
compound: COc1ccccc1C(=O)OCC1CCCN2CCCCC12 (configuration not stated)
growth inhibition: 7% (inactive)
--
compound: NC(=NCc1ccccc1)N/N=C\c1ccnc2ccccc12
growth inhibition: -5% (inactive)
--
compound: O=C(COC(=O)c1cc(O)c(O)c(O)c1)c1ccc(-c2ccccc2)cc1
growth inhibition: 3% (inactive)
--
compound: c1ccc2c(c1)C(=NCCCN1CCCCCC1)c1cccn1-2
growth inhibition: 6% (inactive)
--
compound: CC(=O)[O][Bi]([c]1ccccc1)[c]1ccccc1
growth inhibition: 22% (inactive)
--
compound: O=C1CSc2cc([N+](=O)[O-])ccc2N1
growth inhibition: 0% (inactive)
--
compound: CC1C(NNc2ccccc2)Oc2cc3c(cc2C1c1ccccc1O)OCO3 (configuration not stated)
growth inhibition: 67% (inactive)
--
compound: Nc1ccccc1CC(O)C(=O)O (configuration not stated)
growth inhibition: -17% (inactive)
--
compound: O=C1OC(CCl)CN1/N=C/c1ccc([N+](=O)[O-])o1 (configuration not stated)
growth inhibition: 1% (inactive)

###

Assay: NCI Yeast Anticancer Drug Screen. Data for the rad50EPP+ strain (AID 151);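 further: 0% = growth of vehicle-treated control cultures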
Settings: S. cerevisiae rad50 mutant strain, at 11.0 µM
The panel holds about 79,000 compounds, 15% with a hit somewhere; the sample as a whole holds those more often. Calls of active or inactive are those of the source. No stated cut-off is given here; in the data, active means growth inhibition above about 70%; inactive means the rest.
Possible outcomes: yes (1) for active, no (0) for inactive

molecule: CCCCCCCC1(N=[N+]=[N-])C(=O)c2ccccc2N(C)C1=O (stereo not drawn)
classAssignment: no (0)

molecule: [O-][n+]1c2ccc(O)cc2nc2ccc(Cl)cc21
classAssignment: no (0)

molecule: O=C(/C=C/c1cccc(Br)c1)c1cccs1
classAssignment: no (0)

molecule: O=[N+]([O-])c1ccc2nc3ccccc3cc2c1
classAssignment: yes (1)

molecule: O=C(N=Nc1ccccc1Cl)NNc1ccccc1Cl
classAssignment: no (0)

molecule: Cc1nc(-[n+]2nc(-c3ccncc3)nn2-c2ccccc2)sc1C
classAssignment: no (0)

molecule: CN(C)C[C@H]1CC[C@@H](CN(C)C)C1=O
classAssignment: no (0)

molecule: CC(=O)Nc1ccc(/C=C(\C#N)c2ccc(C)cc2)cc1
classAssignment: no (0)

molecule: COc1ccc2sc3cccc(NCCN(C)C)c3c(=O)c2c1
classAssignment: no (0)

molecule: O=C(NNc1ccnc2cc(Cl)ccc12)/C(=C\c1ccccc1Cl)NC(=O)c1ccccc1
classAssignment: yes (1)

molecule: Cc1c(C(Cc2ccccc2N(C)C(=O)/C=C\C(=O)O)c2c[nH]c3ccccc23)c2ccccc2n1C (stereo not drawn)
classAssignment: no (0)

molecule: Cc1ccc(CSC(N)=Nc2ccccc2)cc1C
classAssignment: no (0)

molecule: c1ccc2c(c1)-c1nc3ccccc3cc1C2N1CCOCC1 (stereo not drawn)
classAssignment: no (0)

molecule: COc1ccc(/C(C)=N/OC(=O)c2c(-c3ccccc3Cl)noc2C)cc1CN1CCOCC1
classAssignment: no (0)

molecule: NNC(=O)CCc1ccc2ccc3ccccc3c2c1
classAssignment: no (0)

molecule: Nc1ncncc1C(C1=C(O)COC1=O)C1=C(O)COC1=O
classAssignment: no (0)

molecule: CCN(CC)[P+](c1ccccc1O)(N(CC)CC)N(CC)CC
classAssignment: no (0)

molecule: CN(Cc1cnc2nc(N)nc(N)c2n1)c1ccc(C(=O)N[C@@H](CCC(=O)O)C(=O)O)cc1
classAssignment: no (0)

molecule: CCOC(=O)C(NC(=O)c1ccccc1)(N1CCN(c2cc3c(cc2F)c(=O)c(C(=O)O)cn3C2CC2)CC1)C(F)(F)F (stereo not drawn)
classAssignment: no (0)

molecule: S=C(Nc1ccc(Cl)cc1)SC1CCCCC1
classAssignment: no (0)

molecule: CCCS(=O)(=O)Nc1ccc(Nc2c3ccccc3nc3ccccc23)c(OC)c1
classAssignment: no (0)

molecule: O=[N+]([O-])c1ccc(=S)[nH]c1
classAssignment: no (0)

molecule: O=C(NCCCCNCCCNC(=O)c1cc(-c2ccccc2)nc2ccccc12)c1cc(-c2ccccc2)nc2ccccc12
classAssignment: no (0)

###

Consider the following compounds and their measured growth inhibition readings.
Assay: NCI Yeast Anticancer Drug Screen. Data for the wt2 strain (AID 169);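 further: 0% = growth of vehicle-treated yeast cultures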
Details: S. cerevisiae wt2 strain growth inhibition; at 11.0 µM; hits give high values
About 79,000 compounds went through this panel and 15% of them were active in at least one assay; those are over-represented in the sample as a whole.
quantityKind: growth inhibition (%)

compound: N#Cc1ccc(C2NN=CC23C(=O)c2ccccc2OC3c2ccccc2)cc1 (stereo unspecified)
unitAbbrev: %
measured: 2

compound: CC[C@@]1(O)C(=O)OCc2c1cc1n(c2=O)Cc2cc3c(CN(C)C)c(O)ccc3nc2-1
unitAbbrev: %
measured: -3

compound: CC1(Cl)CC(O)C2(CC1Br)C1(C)OC1C1OC1(Br)C2(C)C (stereo unspecified)
unitAbbrev: %
measured: -1

compound: CC(=O)OCCOCNC(=S)N/N=C(\C)c1cnccn1
unitAbbrev: %
measured: 6

compound: CCCN(CCC)CC(O)c1cc(-c2ccc(Cl)cc2)nc2c(C)c(Cl)ccc12 (stereo unspecified)
unitAbbrev: %
measured: 99

compound: CNC1C(OC2C(OC3C(O)C(O)C(N=C(N)N)C(O)C3N=C(N)N)OC(C)C2(O)CO)OC(CO)C(O)C1O (stereo unspecified)
unitAbbrev: %
measured: -1

compound: OC(c1ccc(F)cc1)(c1ccc(F)cc1)C1CC1
unitAbbrev: %
measured: -5

compound: O=C1C=CC(=Nc2ccc3c(c2)Cc2cc(NC(=O)C(F)(F)F)ccc2-3)O1
unitAbbrev: %
measured: 15

compound: COc1cc(C(=O)/C=C/c2ccccc2O)ccc1O
unitAbbrev: %
measured: 99

compound: BrCc1cccc2ccc3cccc(CBr)c3c12
unitAbbrev: %
measured: -4

compound: O=C1NC(=O)C2C3C=CC(C3)C12 (stereo unspecified)
unitAbbrev: %
measured: 94

###

Experiment: NCI Yeast Anticancer Drug Screen. Data for the rad52 strain (AID 147);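 further: 0% = growth of vehicle-treated control cultures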
Details: S. cerevisiae rad52 mutant growth inhibition; at 100.0 µM; hits give high values
The panel holds about 79,000 compounds, 15% with a hit somewhere; the sample as a whole holds those more often.
Assign 1 to entries whose growth inhibition meets or exceeds 60%; assign -1 to the rest.

compound: NNC(=O)CCc1ccc2ccc3ccccc3c2c1
classAssignment: -1

compound: C(CCSC1=NCCN1)CSC1=NCCN1 (tested in a mixture with another compound)
classAssignment: 1

compound: COc1ccccc1N=NC(C(=O)c1ccccc1)C(=O)c1ccccc1
classAssignment: 1

compound: O=C(NCCCNCCCNC(=O)c1cc(-c2ccccc2)nc2ccccc12)c1cc(-c2ccccc2)nc2ccccc12
classAssignment: -1

compound: Cc1cc(N=Nc2ccc(S(=O)(=O)[O-])cc2)cc(C(=O)[O-])c1[O-].NC1CCCCC1N.[Na+].[Pt+4]
classAssignment: 1

compound: N#CN1C2CCC1CC(=O)C2
classAssignment: -1

compound: CCCCCCCCCCCC(=O)N(C)C
classAssignment: 1

compound: Nc1ccn(C2OC(CO)C3[O][Sn]([c]4ccccc4)([c]4ccccc4)[O]C32)c(=O)n1 (centres undefined)
classAssignment: 1

compound: COP(=O)(OC)/C(=C\C1=CN(C(c2ccccc2)(c2ccccc2)c2ccccc2)CN1)NC=O
classAssignment: 1

compound: CC(C)c1cc(C(C)C)c(O)c(C([O-])[O-])c1.CC(C)c1cc(C(C)C)c(O)c(C([O-])[O-])c1.CC(C)c1cc(C(C)C)c(O)c(C([OH2+])[OH2+])c1.CC(C)c1cc(C(C)C)c(O)c(C([OH2+])[OH2+])c1.[Cu+2].[Cu+2].[OH3+].[OH3+]
classAssignment: 1

compound: CCC#CCCCOC(=O)c1cc([N+](=O)[O-])cc([N+](=O)[O-])c1
classAssignment: 1

compound: O=C(N=Nc1ccccc1Cl)NNc1ccccc1Cl
classAssignment: -1

compound: Oc1c(Br)cc(Br)cc1C1CCCCC1
classAssignment: 1

compound: CC(C)=CC(=O)O[C@@H]1CC(C)(C)CC2C3=CCC4[C@]56CC[C@](O)(OC5)C(C)(C)C6CC[C@@]4(C)C3(C)CC[C@]21C(=O)O (some centres undefined)
classAssignment: 1

compound: CCOC(=O)c1cc([N+](=O)[O-])cc([N+](=O)[O-])c1Sc1ncnc2nc[nH]c12
classAssignment: 1

compound: CCC(=O)c1cccc2ccccc12
classAssignment: -1

compound: Cc1ccc(S(=O)(=O)Oc2cc(Cl)c(Cl)cc2Cl)cc1
classAssignment: -1

compound: S=c1[nH]nc(Nc2ccc(Cl)cc2)s1
classAssignment: 1
